experiment: Cyclic voltammetry; type: physicochemical; conditions: Run1, scan rate 25 mV s^−1
test readout: E 1/2 (mV)
Numbers only; they are read as mV.

See these solved cases before continuing.
{"compound": "[Fe+2].c1cc[cH-]c1.c1cc[cH-]c1 [Fc, ferrocene, reference compound]", "E 1/2, mV": 451}
{"compound": "O=C(O)[c-]1cccc1.[Fe+2].c1cc[cH-]c1 [FcCOOH, ferrocene carboxylic acid, reference compound]", "E 1/2, mV": 688}

[ask] So what's the measured E 1/2 for this one? O=C(NCCn1cnc2ncccc21)[c-]1cccc1.[Fe+2].c1cc[cH-]c1 [Compound 16]
[reply] 632

[ask] Look up E 1/2: O=C(NCCn1cnc2ccccc21)[c-]1cccc1.[Fe+2].c1cc[cH-]c1 [Compound 15]
[reply] 653

[ask] Bench note: what E 1/2 did O=C(NCCn1cnc2cccnc21)[c-]1cccc1.[Fe+2].c1cc[cH-]c1 [Compound 17] show?
[reply] 620

[ask] What does the record list as E 1/2 for O=C(NCCn1c(-c2ccccc2)nc2ccccc21)[c-]1cccc1.[Fe+2].c1cc[cH-]c1 [Compound 14] ?
[reply] 638
